In this section, each of the molecules is paired with its reported log10(MIC).
# Test system: C. jejuni Au-38
Values below are the log10 of the recorded MIC, with µg/mL as the unit.

{"columns": ["molecule", "parameter-measured", "reported"],
 "data": [
  ["CCCNC(=S)Nc1cc(OC)cc(OC)c1 [T1]", "log10(MIC)", -0.51],
  ["CCOC(=O)C1CCN(CC(=O)Nc2cccc3cccnc23)CC1 [T5]", "log10(MIC)", 0.40],
  ["CCN(CC)/C(C)=N/C(=O)Nc1ccccc1 [T8]", "log10(MIC)", -1.22],
  ["CC(C)n1c(S)nc2c1c(=O)[nH]c(=O)n2C [T6]", "log10(MIC)", 0.10],
  ["CC(C)(C)NC(=S)NNc1c(Cl)cncc1Cl [T2]", "log10(MIC)", -0.21],
  ["CCc1ccnc(NS(=O)(=O)c2ccc(C)c(Cl)c2)c1 [T4]", "log10(MIC)", 0.80],
  ["CSc1ccccc1-c1nnc(NC(=O)Cc2ccccc2)o1 [T7]", "log10(MIC)", -0.80]
]}

QUERY: Observed log10(MIC) on C. jejuni Au-38 for CN(C)c1ccc(C(=O)Nc2ccc(CN3CCS(=O)(=O)CC3)cc2)cc1 [T3] , please.
RESULT: 0.80

###

# Tested on: C. jejuni Au-45
Label satisfied when MIC < 0.6 µg/mL; otherwise not satisfied.

QUERY: In the record for CC(C)n1c(S)nc2c1c(=O)[nH]c(=O)n2C [T6] , is MIC less than 0.6 µg/mL?
RESULT: not satisfied

QUERY: In the record for CCN(CC)/C(C)=N/C(=O)Nc1ccccc1 [T8] , is MIC less than 0.6 µg/mL?
RESULT: satisfied

QUERY: In the record for CC(C)(C)NC(=S)NNc1c(Cl)cncc1Cl [T2] , is MIC less than 0.6 µg/mL?
RESULT: not satisfied

QUERY: In the record for CN(C)c1ccc(C(=O)Nc2ccc(CN3CCS(=O)(=O)CC3)cc2)cc1 [T3] , is MIC less than 0.6 µg/mL?
RESULT: not satisfied

QUERY: In the record for CSc1ccccc1-c1nnc(NC(=O)Cc2ccccc2)o1 [T7] , is MIC less than 0.6 µg/mL?
RESULT: satisfied

###

# Test system: C. jejuni Au-20
# assay-info: Copper sulfate sensitivity dose–response assay in vitro (MIC/MBC)
# Format: cell-based
# protocol-conditions: Campylobacter jejuni, AU20; 0.5 mM CuSO4; read-out: MBC, Au-20 (Table S5)
In this section, each of the compounds is paired with its reported MBC.
Please reply with the bare figure in µg/mL and do not write the unit itself.

Example entries begin here.
{"columns": ["structure-smiles-string", "unit-of-measurement", "reported"],
 "data": [
  ["CCN(CC)/C(C)=N/C(=O)Nc1ccccc1", "µg/mL", 0.25],
  ["CCOC(=O)C1CCN(CC(=O)Nc2cccc3cccnc23)CC1", "µg/mL", 5],
  ["CCCNC(=S)Nc1cc(OC)cc(OC)c1", "µg/mL", 0.62],
  ["CC(C)n1c(S)nc2c1c(=O)[nH]c(=O)n2C", "µg/mL", 2.5]
]}

QUERY: Please look up its MBC: CSc1ccccc1-c1nnc(NC(=O)Cc2ccccc2)o1
RESULT: 0.32

QUERY: Please look up its MBC: CC(C)(C)NC(=S)NNc1c(Cl)cncc1Cl
RESULT: 1.24
